PROTOCOL DESCRIPTION: in vitro
ASSAY CONDITIONS: human, TK6 lymphoblastoid cells
ASSAY READOUT: CC50 at 24 h (µM)
One number for each entry, in µM.

Asked: Quick one: give measured CC50 at 24 h for O=[N+]([O-])c1ccc2nc(Nc3ccc(Cl)c(Cl)c3)c(Nc3ccc(Cl)c(Cl)c3)nc2c1 [Compound 22]
Given back: 9.36

* * *

System: adult S. japonicum male worms
PROTOCOL DESCRIPTION: In vitro screening of S. japonicum adults at 100 nM (WormAssay motility, descriptors, severity score)
Assay type: cell-based, Schistosoma japonicum
ASSAY CONDITIONS: S. japonicum, 48 h, max = 4, one line per replicate
ASSAY READOUT: SEVERITY SCORES 48 h
One number for each entry.

Reference set (4 entries):
COMPOUND STRUCTURE STRING: COc1ccc(Nc2nc3ccc([N+](=O)[O-])cc3nc2Nc2ccc(OC)c(C(F)(F)F)c2)cc1C(F)(F)F
SEVERITY SCORES 48 h: 0

COMPOUND STRUCTURE STRING: O=[N+]([O-])c1ccc2nc(Nc3ccc(C(F)(F)F)cc3)c(Nc3ccc(C(F)(F)F)cc3)nc2c1
SEVERITY SCORES 48 h: 4

COMPOUND STRUCTURE STRING: O=[N+]([O-])c1ccc2nc(Nc3cc(C(F)(F)F)ccc3F)c(Nc3cc(C(F)(F)F)ccc3F)nc2c1
SEVERITY SCORES 48 h: 4

COMPOUND STRUCTURE STRING: O=[N+]([O-])c1ccc2nc(Nc3cccc(Cl)c3)c(Nc3cccc(Cl)c3)nc2c1
SEVERITY SCORES 48 h: 2

Next up:
Asked: Quick one: give measured SEVERITY SCORES 48 h for O=[N+]([O-])c1ccc2nc(Nc3ccc(Cl)cc3)c(Nc3ccc(Cl)cc3)nc2c1
Given back: 1
